Data provenance: paper PMC7531004

conditions: cell viability/%
Where a SMILES comes first, the peptide text is derived from it. [ ]: non-standard residue; d: D form. The star is where a group is joined. NHCH2CH2OH = OCCN*; For = O=C*
Give viability for every item shown.
Just the number in %, nothing appended.

Input line: Look at this compound and give its reported viability. CNC(=O)C[C@@H](NC(=O)[C@H](Cc1c[nH]c2ccccc12)NC(=O)[C@@H](CC(C)C)NC(=O)[C@@H](NC(=O)[C@@H](CC(C)C)NC(=O)[C@H](C)NC(=O)[C@H](NC(=O)[C@H](C)NC(=O)CNC(=O)[C@@H](NC=O)C(C)C)[C@H](C)O)C(C)C)C(=O)N[C@@H](Cc1c[nH]c2ccccc12)C(=O)N[C@H](CC(C)C)C(=O)N[C@@H](Cc1c[nH]c2ccccc12)C(=O)N[C@H](CC(C)C)C(=O)N[C@@H](Cc1c[nH]c2ccccc12)C(=O)NCCO [compound 5284] (For-VGA[dT]A[dL]V[dL]W[dD](NHMe)W[dL]W[dL]W-NHCH2CH2OH)
Output line: 100

Input line: Suppose we examine the compound CC(C)C[C@@H](NC(=O)[C@H](C)NC(=O)CNC(=O)[C@@H](NC=O)C(C)C)C(=O)N[C@@H](C)C(=O)N[C@@H](C(=O)N[C@H](C(=O)N[C@@H](C(=O)N[C@@H](Cc1c[nH]c2ccccc12)C(=O)N[C@@H](C(=O)N[C@@H](Cc1c[nH]c2ccccc12)C(=O)N[C@H](CC(C)C)C(=O)N[C@@H](Cc1c[nH]c2ccccc12)C(=O)N[C@H](CC(C)C)C(=O)N[C@@H](Cc1c[nH]c2ccccc12)C(=O)NCCO)[C@H](C)O)C(C)C)C(C)C)C(C)C [compound 10674] (For-VGA[dL]A[dV]V[dV]W[dT]W[dL]W[dL]W-NHCH2CH2OH) ; what viability value has been reported?
Output line: 87.3

Input line: // viability lookup, key: CC(C)C[C@@H](NC(=O)[C@H](C)NC(=O)[C@H](NC(=O)[C@H](C)NC(=O)CNC(=O)[C@@H](NC=O)C(C)C)C(C)C)C(=O)N[C@H](C(=O)N[C@@H](C(=O)N[C@@H](Cc1c[nH]c2ccccc12)C(=O)N[C@@H](C(=O)N[C@@H](Cc1c[nH]c2ccccc12)C(=O)N[C@H](CC(C)C)C(=O)N[C@@H](Cc1c[nH]c2ccccc12)C(=O)N[C@@H](C(=O)N[C@@H](Cc1c[nH]c2ccccc12)C(=O)NCCO)C(C)C)C(C)C)[C@H](C)O)C(C)C [compound 3206] (For-VGA[dV]A[dL]V[dT]W[dV]W[dL]W[dV]W-NHCH2CH2OH)
Output line: 97.4

Input line: What value of viability has been reported for the following compound? CC(C)C[C@@H](NC(=O)[C@H](C)NC(=O)CNC(=O)[C@@H](NC=O)C(C)C)C(=O)N[C@@H](C)C(=O)N[C@@H](C(=O)N[C@H](C(=O)N[C@@H](C(=O)N[C@@H](Cc1c[nH]c2ccccc12)C(=O)N[C@@H](C(=O)N[C@@H](Cc1c[nH]c2ccccc12)C(=O)N[C@H](CC(C)C)C(=O)N[C@@H](Cc1c[nH]c2ccccc12)C(=O)N[C@H](CC(C)C)C(=O)N[C@@H](Cc1c[nH]c2ccccc12)C(=O)NCCO)C(C)C)[C@H](C)O)C(C)C)C(C)C [compound 2290] (For-VGA[dL]A[dV]V[dT]W[dV]W[dL]W[dL]W-NHCH2CH2OH)
Output line: 100

---

system: P388 mouse leukemia cells; conditions: 92 h
Where a SMILES comes first, the peptide text is derived from it. [ ]: non-standard residue; d: D form. The star is where a group is joined. NHCH2CH2OH = OCCN*; For = O=C*
Please go through the items and note down their cell viability/%.

Input line: Query (compound): CC(C)C[C@@H](NC(=O)[C@H](C)NC(=O)[C@H](NC(=O)[C@H](C)NC(=O)CNC(=O)[C@@H](NC=O)C(C)C)C(C)C)C(=O)N[C@H](C(=O)N[C@@H](C(=O)N[C@@H](Cc1c[nH]c2ccccc12)C(=O)N[C@H](CC(C)C)C(=O)N[C@@H](Cc1c[nH]c2ccccc12)C(=O)N[C@@H](C(=O)N[C@@H](Cc1c[nH]c2ccccc12)C(=O)N[C@@H](C(=O)N[C@@H](Cc1c[nH]c2ccccc12)C(=O)NCCO)C(C)C)C(C)C)C(C)C)C(C)C [compound 6888] (For-VGA[dV]A[dL]V[dV]W[dL]W[dV]W[dV]W-NHCH2CH2OH) ; field requested: cell viability/%
Output line: 78.6%

Input line: Query (compound): CC(C)C[C@@H](NC(=O)[C@H](Cc1c[nH]c2ccccc12)NC(=O)[C@H](NC(=O)[C@@H](NC(=O)[C@H](NC(=O)[C@H](C)NC(=O)[C@H](NC(=O)[C@H](C)NC(=O)CNC(=O)[C@@H](NC=O)C(C)C)C(C)C)C(C)C)C(C)C)[C@H](C)O)C(=O)N[C@@H](Cc1c[nH]c2ccccc12)C(=O)N[C@@H](C(=O)N[C@@H](Cc1c[nH]c2ccccc12)C(=O)N[C@@H](C(=O)N[C@@H](Cc1c[nH]c2ccccc12)C(=O)NCCO)C(C)C)C(C)C [compound 9910] (For-VGA[dV]A[dV]V[dT]W[dL]W[dV]W[dV]W-NHCH2CH2OH) ; field requested: cell viability/%
Output line: 100.0%

Input line: Would you mind telling me what cell viability/% value was observed for CC(C)C[C@@H](NC(=O)[C@H](Cc1c[nH]c2ccccc12)NC(=O)[C@H](NC(=O)[C@H](Cc1c[nH]c2ccccc12)NC(=O)[C@H](NC(=O)[C@H](Cc1c[nH]c2ccccc12)NC(=O)[C@H](NC(=O)[C@@H](NC(=O)[C@H](NC(=O)[C@H](C)NC(=O)[C@H](NC(=O)[C@H](C)NC(=O)CNC(=O)[C@@H](NC=O)C(C)C)C(C)C)C(C)C)C(C)C)C(C)C)C(C)C)C(C)C)C(=O)N[C@@H](Cc1c[nH]c2ccccc12)C(=O)NCCO [compound 10699] (For-VGA[dV]A[dV]V[dV]W[dV]W[dV]W[dL]W-NHCH2CH2OH) ?
Output line: 100.0%

Input line: For the compound shown here, CNC(=O)C[C@@H](NC(=O)[C@@H](NC(=O)[C@H](NC(=O)[C@H](C)NC(=O)[C@@H](CC(C)C)NC(=O)[C@H](C)NC(=O)CNC(=O)[C@@H](NC=O)C(C)C)C(C)C)C(C)C)C(=O)N[C@@H](Cc1c[nH]c2ccccc12)C(=O)N[C@@H](C(=O)N[C@@H](Cc1c[nH]c2ccccc12)C(=O)N[C@H](CC(C)C)C(=O)N[C@@H](Cc1c[nH]c2ccccc12)C(=O)N[C@@H](C(=O)N[C@@H](Cc1c[nH]c2ccccc12)C(=O)NCCO)C(C)C)C(C)C [compound 5185] (For-VGA[dL]A[dV]V[dD](NHMe)W[dV]W[dL]W[dV]W-NHCH2CH2OH) , give the reported cell viability/%.
Output line: 100.0%

Input line: Find the recorded cell viability/% belonging to CC(C)C[C@@H](NC(=O)[C@H](C)NC(=O)[C@H](NC(=O)[C@H](C)NC(=O)CNC(=O)[C@@H](NC=O)C(C)C)C(C)C)C(=O)N[C@H](C(=O)N[C@@H](C(=O)N[C@@H](Cc1c[nH]c2ccccc12)C(=O)N[C@@H](C(=O)N[C@@H](Cc1c[nH]c2ccccc12)C(=O)N[C@H](CC(C)C)C(=O)N[C@@H](Cc1c[nH]c2ccccc12)C(=O)N[C@@H](C(=O)N[C@@H](Cc1c[nH]c2ccccc12)C(=O)NCCO)[C@H](C)O)C(C)C)C(C)C)C(C)C [compound 7393] (For-VGA[dV]A[dL]V[dV]W[dV]W[dL]W[dT]W-NHCH2CH2OH) and report it.
Output line: 100.0%

Input line: // returns reported cell viability/% for input CC(C)C[C@@H](NC(=O)[C@H](C)NC(=O)CNC(=O)[C@@H](NC=O)C(C)C)C(=O)N[C@@H](C)C(=O)N[C@@H](C(=O)N[C@H](C(=O)N[C@H](CC(C)C)C(=O)N[C@@H](Cc1c[nH]c2ccccc12)C(=O)N[C@@H](C(=O)N[C@@H](Cc1c[nH]c2ccccc12)C(=O)N[C@H](CC(C)C)C(=O)N[C@@H](Cc1c[nH]c2ccccc12)C(=O)N[C@@H](C(=O)N[C@@H](Cc1c[nH]c2ccccc12)C(=O)NCCO)[C@H](C)O)C(C)C)C(C)C)C(C)C [compound 5058] (For-VGA[dL]A[dV]V[dL]W[dV]W[dL]W[dT]W-NHCH2CH2OH)
Output line: 100.0%

Input line: Need cell viability/% of CNC(=O)C[C@@H](NC(=O)[C@@H](NC(=O)[C@H](NC(=O)[C@H](C)NC(=O)[C@H](NC(=O)[C@H](C)NC(=O)CNC(=O)[C@@H](NC=O)C(C)C)C(C)C)C(C)C)C(C)C)C(=O)N[C@@H](Cc1c[nH]c2ccccc12)C(=O)N[C@H](CC(C)C)C(=O)N[C@@H](Cc1c[nH]c2ccccc12)C(=O)N[C@H](CC(C)C)C(=O)N[C@@H](Cc1c[nH]c2ccccc12)C(=O)N[C@@H](C(=O)N[C@@H](Cc1c[nH]c2ccccc12)C(=O)NCCO)C(C)C [compound 6510] (For-VGA[dV]A[dV]V[dD](NHMe)W[dL]W[dL]W[dV]W-NHCH2CH2OH) , thanks.
Output line: 100.0%

Input line: Which cell viability/% value is on record for CC(C)C[C@@H](NC(=O)[C@H](C)NC(=O)[C@H](NC(=O)[C@H](C)NC(=O)CNC(=O)[C@@H](NC=O)C(C)C)C(C)C)C(=O)N[C@H](C(=O)N[C@H](CC(C)C)C(=O)N[C@@H](Cc1c[nH]c2ccccc12)C(=O)N[C@@H](C(=O)N[C@@H](Cc1c[nH]c2ccccc12)C(=O)N[C@@H](C(=O)N[C@@H](Cc1c[nH]c2ccccc12)C(=O)N[C@@H](C(=O)N[C@@H](Cc1c[nH]c2ccccc12)C(=O)NCCO)[C@H](C)O)C(C)C)C(C)C)C(C)C [compound 13147] (For-VGA[dV]A[dL]V[dL]W[dV]W[dV]W[dT]W-NHCH2CH2OH) ?
Output line: 94.4%
